Assayed system: IDO1 (Homo sapiens, UniProt P14902)
Sequence (P14902 whole entry): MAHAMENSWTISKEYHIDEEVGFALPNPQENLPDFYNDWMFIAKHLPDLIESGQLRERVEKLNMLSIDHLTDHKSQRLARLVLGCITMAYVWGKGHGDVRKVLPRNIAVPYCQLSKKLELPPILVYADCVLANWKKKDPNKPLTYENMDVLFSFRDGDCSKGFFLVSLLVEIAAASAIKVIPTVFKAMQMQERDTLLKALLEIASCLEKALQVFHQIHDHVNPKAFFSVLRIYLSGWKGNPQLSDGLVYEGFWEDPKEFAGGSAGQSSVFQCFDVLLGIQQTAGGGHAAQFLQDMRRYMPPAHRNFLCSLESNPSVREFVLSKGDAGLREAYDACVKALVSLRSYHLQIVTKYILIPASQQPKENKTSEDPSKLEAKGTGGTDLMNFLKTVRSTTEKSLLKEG
Protocol summary: IDO1 Cellular Assay in HeLa Cells Stimulated with IFNγ
Format: cell-based
Condition label: IFNγ 100 ng/mL, 300 uM L-tryptophan, about 48 hours, fluorescence readout, read-out: IDO1 HELA Cell Assay, IC50
Parameter: IC50 (nM)
Give your result in nM as a bare value.

Completed entries (count: 3):
{"Structure as smiles": "CC(C)c1ccc(C2CCN(C(=O)Cn3nc(C(=O)N4C[C@@H](C)O[C@@H](C)C4)c4c3CCC4)CC2)cc1", "Parameter": "IC50", "Observed measurement": 296}
{"Structure as smiles": "C[C@@H]1CN(C(=O)c2nn(CC(=O)N3CCC(c4cc(F)cc(F)c4)CC3)c3c2CCC3)C[C@H](C)O1", "Parameter": "IC50", "Observed measurement": 52.4}
{"Structure as smiles": "Cc1c(Cl)cccc1C1CCN(C(=O)Cn2nc(C(=O)N3CCN(C(=O)CO)CC3)c3c2C[C@H]2C[C@@H]32)CC1", "Parameter": "IC50", "Observed measurement": 1}

[in] # get_value(readout='IC50', item= "C[C@@H]1CN(C(=O)c2nn(CC(=O)N3CCC(c4cc(Cl)cc(Cl)c4)CC3)c3c2CCC3)C[C@H](C)O1" )
[out] 274

====

Assayed system: UniProtKB P14902
Protocol summary: IDO1 Cellular Assay in HeLa Cells Stimulated with IFNγ
Format: cell-based
Condition label: IFNγ 100 ng/mL, 300 uM L-tryptophan, about 48 hours, fluorescence readout, read-out: IDO1 HELA Cell Assay, IC50
Protocol: Biological Assays IDO1 Cellular Assay in HeLa Cells Stimulated with IFNγ HeLa cells were cultured in complete HeLa culture medium (90% EMEM, 10% heat-inactivated fetal bovine serum) and expanded to about 1×10^9 cells. […] Frozen HeLa cells were thawed and transferred into HeLa assay medium (99% complete HeLa culture medium, 1% Pen/Strep) with 20 mL medium/vial of cells. […] The cells were then counted and adjusted to a density of 2×10^5 cells/mL in HeLa assay medium. […]
Parameter: IC50 (nM)
Give your result in nM as a bare value.

{"Molecule": "C[C@@H]1CN(C(=O)c2nn(CC(=O)N3CCC(c4cc(F)ccc4F)CC3)c3c2CCC3)C[C@H](C)O1 [Example 150]", "Unit annotation": "nM", "IC50": 122}

[in] # get_value(readout='IC50', item= Cc1cc(F)ccc1C1CCN(C(=O)Cn2nc(C(=O)N3CC[C@H](O)[C@@H](F)C3)c3c2CCC3)CC1 [Example 52] )
[out] 111

[in] # get_value(readout='IC50', item= Cc1cccc(C2CCN(C(=O)Cn3nc(C(=O)N4CCC(O)(CF)CC4)c4c3CCC4)CC2)c1C [Example 31] )
[out] 5.1

[in] # get_value(readout='IC50', item= Cc1c(C2CCN(C(=O)Cn3nc(C(=O)N4CCN(CC(N)=O)CC4)c4c3C[C@H]3C[C@@H]43)CC2)cccc1C(F)(F)F [Example 6] )
[out] 2.5

[in] # get_value(readout='IC50', item= Cc1cc(F)ccc1C1CCN(C(=O)Cn2nc(C(=O)N3CCC(O)(CF)CC3)c3c2CCC3)CC1 [Example 53] )
[out] 114

[in] # get_value(readout='IC50', item= Cc1cccc(C2CCN(C(=O)Cn3nc(C(=O)N4CCC(OCCO)CC4)c4c3CCCC4)CC2)c1C [Example 38] )
[out] 1.9

[in] # get_value(readout='IC50', item= C[C@@H]1CN(C(=O)c2nn(CC(=O)N3CCC(c4ccc(F)cc4Cl)CC3)c3c2CCC3)C[C@H](C)O1 [Example 124] )
[out] 57
